B1: KCNK9 (parent)
chain: CFITLTTIGFGDYVALQTKGALQK

variants of: B1; experiment: protein stability index of a GFP-peptide fusion (GPS, HEK-293T) (PSI 1-6); higher = more stable; conditions: c terminus: a fixed tail appended;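 also: lentivirally expressed fusions sorted by FACS into six bins by GFP to DsRed ratio, PSI derived from sequencing read proportions per bin multiplied by bin number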
metric_name: protein stability index
Enter the number alone.

For the variant "T4I" , report protein stability index.
1.52

Entry "F2C" needs its protein stability index filled in; supply it.
2.23

Specify protein stability index for "K24S" and stop.
3.33
